testSystem: T1, O7-AA
T1 chain: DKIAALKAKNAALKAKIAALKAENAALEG
assayComment: two-hybrid library CCmax;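 also: natural log of median RNA to DNA barcode read ratio; higher means stronger binding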
experimentalConditions: mean of both orientations
recordedMetric: interaction score

Record excerpt, results attached:
Look up and state reported interaction score for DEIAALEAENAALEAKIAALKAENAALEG [4H171-AA]
1.08

Given the binder DKIAALKAEIAALEAENAALEAENAALEG [O11-AA] , write its reported interaction score.
-0.673

Query interaction score for DEIAALEAKIAALKAENAALEAENAALEG [O3-AA]
-1.4

Supply interaction score value. Item: DENAALEAEIAALEAKNAALKAEIAALEG [O5-AA]
-0.71

For the binder DKIAALKAEIAALEAKNAALKAKNAALKG [O4-AA] , give its reported interaction score.
-1.28

A = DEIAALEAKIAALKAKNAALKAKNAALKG [4H384-AA]
B = DKNAALKAENAALEAEIAALEAEIAALEG [O1-AA]
C = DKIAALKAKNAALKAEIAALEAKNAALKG [4H3016-AA]
D = DENAALEAEIAALEAENAALEAKIAALKG [O14-AA]
// sort entries: interaction score, high to low Response field: labels, in requested order.
D, C, B, A

P = DENAALEAKNAALKAKIAALKAKIAALKG [O2-AA]
Q = DKNAALKAKIAALKAENAALEAKIAALKG [O6-AA]
# min-compare on interaction score between P and Q Which one? Tell me its label.
P
